Biological target: Serotonin 3 (5-HT3) receptor (Rattus norvegicus, UniProt P35563+Q9JJ16)
Sequence (P35563 whole entry): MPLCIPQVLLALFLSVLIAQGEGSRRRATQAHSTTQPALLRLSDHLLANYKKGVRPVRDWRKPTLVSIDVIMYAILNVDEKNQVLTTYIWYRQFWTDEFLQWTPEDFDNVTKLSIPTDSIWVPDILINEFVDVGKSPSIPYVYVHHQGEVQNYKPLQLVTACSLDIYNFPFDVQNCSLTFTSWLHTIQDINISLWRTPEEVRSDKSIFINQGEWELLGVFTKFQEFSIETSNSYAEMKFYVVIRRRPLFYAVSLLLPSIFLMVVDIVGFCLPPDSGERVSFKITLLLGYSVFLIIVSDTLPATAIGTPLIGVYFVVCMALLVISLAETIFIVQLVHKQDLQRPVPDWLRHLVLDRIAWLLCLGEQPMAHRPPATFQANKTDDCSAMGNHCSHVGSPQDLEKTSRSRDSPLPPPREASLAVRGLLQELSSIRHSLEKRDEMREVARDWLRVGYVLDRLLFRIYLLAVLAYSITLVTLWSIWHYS
Sequence (Q9JJ16 whole entry): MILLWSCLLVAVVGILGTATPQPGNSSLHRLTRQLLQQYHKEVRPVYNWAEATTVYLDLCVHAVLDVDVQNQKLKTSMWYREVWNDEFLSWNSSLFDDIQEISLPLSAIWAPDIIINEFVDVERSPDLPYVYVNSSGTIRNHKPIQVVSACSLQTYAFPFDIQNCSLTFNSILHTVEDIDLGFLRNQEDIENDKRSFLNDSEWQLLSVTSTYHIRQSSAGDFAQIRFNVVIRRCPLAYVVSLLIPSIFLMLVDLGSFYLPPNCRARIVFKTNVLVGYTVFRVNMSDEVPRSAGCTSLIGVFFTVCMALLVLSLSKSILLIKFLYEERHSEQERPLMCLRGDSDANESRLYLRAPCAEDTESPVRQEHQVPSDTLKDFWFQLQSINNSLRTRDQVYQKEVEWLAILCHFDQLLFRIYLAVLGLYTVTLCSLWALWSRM
Test: In vitro antagonism of the 5-HT-3 receptor determined by inhibition of 5-HT-induced depolarization of the isolated rat vagus nerve.
Format: functional
Settings: read-out: pA2 (converted)
measurementLabel: Kb (nM)
Lab book: enter the figure in nM, no units written.

CC(C)Oc1ccccc1C(=O)NC(=O)NC1CC2CCC(C1)N2C (centres undefined)
0.631
CCCCCOc1ccccc1C(=O)NC(=O)NC1CC2CCC(C1)N2C (centres undefined)
31.6

Okay, now this compound:
Query: Requested read-out: Kb. Entry: CCCCOc1ccccc1C(=O)NC(=O)NC1CC2CCC(C1)N2C (centres undefined)
Response: 2
